Listed next: entries and their corresponding selectivity ratio.
test: Selectivity index, ratio of GI50 for human PANC1 cells to MIC for active stage of Mycobacterium tuberculosis H37Ra ATCC 25177 infected in human THP1 cells; format: toxicity, cell-based; conditions: PANC-1 cells, read-out: Selectivity Index
Assay readout: selectivity ratio

> print(dat)
                                smiles.code      assay.readout  result
1  CCCc1cc2c(=O)n(CCCSc3nc(-c4cc(OC)c(OC)c(OC)c4)c(C#N)c(=O)[nH]3)cnc2s1  selectivity ratio     > 3
2  C#CCn1c(SCCCn2cnc3sc4c(c3c2=O)CCCC4)nc(-c2cc(OC)c(OC)c(OC)c2)c(C#N)c1=O  selectivity ratio     > 3
3  CCCCCc1cc2c(=O)n(CCCSc3nc(-c4cc(OC)c(OC)c(OC)c4)c(C#N)c(=O)[nH]3)cnc2s1  selectivity ratio     > 2
4  COc1cc(-c2nc(SCCCn3cnc4sc5c(c4c3=O)CCCC5)[nH]c(=O)c2C#N)cc(OC)c1OC  selectivity ratio       2
5  CCCCCCCCn1c(SCCCn2cnc3sc4c(c3c2=O)CCCC4)nc(-c2cc(OC)c(OC)c(OC)c2)c(C#N)c1=O  selectivity ratio     > 3
6  CCCCCCCc1cc2c(=O)n(CCSc3nc(-c4cc(OC)c(OC)c(OC)c4)c(C#N)c(=O)[nH]3)cnc2s1  selectivity ratio       6
7  COc1cc(-c2[nH]c(=S)[nH]c(=O)c2C#N)cc(OC)c1OC  selectivity ratio     > 3
8  COc1cc(-c2nc(SCCCn3cnc4sc5c(c4c3=O)CCCC5)n(CCC(F)(F)C(F)(F)C(F)(F)C(F)(F)C(F)(F)C(F)(F)F)c(=O)c2C#N)cc(OC)c1OC  selectivity ratio     > 3

---

assay: Selectivity index, ratio of GI50 for human HeLa cells to MIC for dormant stage of Mycobacterium tuberculosis H37Ra ATCC 25177; type: toxicity, cell-based; details: read-out: Selectivity Index
Assay readout: selectivity ratio

> print(dat)
                                smiles.code      assay.readout  numeric.result
1  C#CCn1c(SCCCn2cnc3sc4c(c3c2=O)CCCC4)nc(-c2cc(OC)c(OC)c(OC)c2)c(C#N)c1=O  selectivity ratio               2
2     N#Cc1c(-c2ccc(O)cc2)[nH]c(=S)[nH]c1=O  selectivity ratio               3
3  CCCCCCc1cc2c(=O)n(CCCSc3nc(-c4cc(OC)c(OC)c(OC)c4)c(C#N)c(=O)[nH]3)cnc2s1  selectivity ratio               8
4  CCCCCCCc1cc2c(=O)n(CCCSc3nc(-c4cc(OC)c(OC)c(OC)c4)c(C#N)c(=O)[nH]3)cnc2s1  selectivity ratio              10

---

Listed next: entries and their corresponding selectivity ratio.
assay: Selectivity index, ratio of GI50 for human A549 cells to MIC for dormant stage of Mycobacterium tuberculosis H37Ra ATCC 25177 infected in human THP1 cells; format: toxicity, cell-based; conditions: read-out: Selectivity Index
Assay readout: selectivity ratio

> print(dat)
                                smiles.code      assay.readout  prefix.operator  numeric.result
1  CCCCCn1c(SCCCn2cnc3sc4c(c3c2=O)CCCC4)nc(-c2cc(OC)c(OC)c(OC)c2)c(C#N)c1=O  selectivity ratio                >               3
2  CCCCCCCCn1c(SCCCn2cnc3sc4c(c3c2=O)CCCC4)nc(-c2cc(OC)c(OC)c(OC)c2)c(C#N)c1=O  selectivity ratio                >               3
3  CCCCCCc1cc2c(=O)n(CCCSc3nc(-c4cc(OC)c(OC)c(OC)c4)c(C#N)c(=O)[nH]3)cnc2s1  selectivity ratio                =              13
4             Cc1ccc(-c2nc(S)nc(O)c2C#N)cc1  selectivity ratio                =               3

---

assay: Selectivity index, ratio of GI50 for human A549 cells to MIC for active stage of Mycobacterium tuberculosis H37Ra ATCC 25177 infected in human THP1 cells; type: toxicity, cell-based; details: read-out: Selectivity Index
Listed next: entries and their corresponding selectivity ratio.
Assay readout: selectivity ratio

> print(dat)
                                smiles.code  result
1  CCCCCCCc1cc2c(=O)n(CCSc3nc(-c4cc(OC)c(OC)c(OC)c4)c(C#N)c(=O)[nH]3)cnc2s1       7
2  CCCCCCCCCCCn1c(SCCCn2cnc3sc4c(c3c2=O)CCCC4)nc(-c2cc(OC)c(OC)c(OC)c2)c(C#N)c1=O     > 3
3  COc1cc(-c2[nH]c(=S)[nH]c(=O)c2C#N)cc(OC)c1OC     > 3
4  COc1cc(-c2nc(SCCCn3cnc4sc5c(c4c3=O)CCCC5)n(CCC(F)(F)C(F)(F)C(F)(F)C(F)(F)C(F)(F)C(F)(F)F)c(=O)c2C#N)cc(OC)c1OC     > 3
5  CCCCCCCCn1c(SCCCn2cnc3sc4c(c3c2=O)CCCC4)nc(-c2cc(OC)c(OC)c(OC)c2)c(C#N)c1=O     > 3
6  CCCCCCc1cc2c(=O)n(CCSc3nc(-c4cc(OC)c(OC)c(OC)c4)c(C#N)c(=O)[nH]3)cnc2s1       6

---

assay: Selectivity index, ratio of GI50 for human A549 cells to MIC for active stage of Mycobacterium tuberculosis H37Ra ATCC 25177 infected in human THP1 cells; format: toxicity, cell-based; conditions: read-out: Selectivity Index

Molecule	selectivity ratio
COc1cc(-c2nc(SCCCn3cnc4sc5c(c4c3=O)CCCC5)n(Cc3c(F)c(F)c(F)c(F)c3F)c(=O)c2C#N)cc(OC)c1OC	> 3
CCCCCCCc1cc2c(=O)n(CCCSc3nc(-c4cc(OC)c(OC)c(OC)c4)c(C#N)c(=O)[nH]3)cnc2s1	< 3
COc1cc(-c2nc(SCCCn3cnc4sc5c(c4c3=O)CCCC5)n(S(=O)(=O)c3ccc(C)cc3)c(=O)c2C#N)cc(OC)c1OC	> 3
Cc1ccc(-c2nc(S)nc(O)c2C#N)cc1	< 3
CCCCCn1c(SCCCn2cnc3sc4c(c3c2=O)CCCC4)nc(-c2cc(OC)c(OC)c(OC)c2)c(C#N)c1=O	> 3
C#CCn1c(SCCCn2cnc3sc4c(c3c2=O)CCCC4)nc(-c2cc(OC)c(OC)c(OC)c2)c(C#N)c1=O	> 3
COc1cc(-c2nc(SCCCn3cnc4sc5c(c4c3=O)CCCC5)n(CCCn3cnc4sc5c(c4c3=O)CCCC5)c(=O)c2C#N)cc(OC)c1OC	< 3
CCCCCc1cc2c(=O)n(CCCSc3nc(-c4cc(OC)c(OC)c(OC)c4)c(C#N)c(=O)[nH]3)cnc2s1	> 3
COc1cc(-c2nc(SCCCn3cnc4sc5c(c4c3=O)CCCC5)n(C)c(=O)c2C#N)cc(OC)c1OC	4
N#Cc1c(-c2ccc(O)cc2)[nH]c(=S)[nH]c1=O	< 3
CCCc1cc2c(=O)n(CCCSc3nc(-c4cc(OC)c(OC)c(OC)c4)c(C#N)c(=O)[nH]3)cnc2s1	> 3
COc1cc(-c2nc(SCCCn3cnc4sc5c(c4c3=O)CCCC5)n(Cc3ccccc3)c(=O)c2C#N)cc(OC)c1OC	> 3
CCCCCCc1cc2c(=O)n(CCCSc3nc(-c4cc(OC)c(OC)c(OC)c4)c(C#N)c(=O)[nH]3)cnc2s1	< 3
COc1cc(-c2nc(SCCCn3cnc4sc5c(c4c3=O)CCCC5)[nH]c(=O)c2C#N)cc(OC)c1OC	3
CO[C@H]1/C=C/O[C@@]2(C)Oc3c(C)c(O)c4c(O)c(c(/C=N/N5CCN(C)CC5)c(O)c4c3C2=O)NC(=O)/C(C)=C\C=C\[C@H](C)[C@H](O)[C@@H](C)[C@@H](O)[C@@H](C)[C@H](OC(C)=O)[C@@H]1C [RIFAMPIN]	196

---

experiment: Cytotoxicity against human PANC1 cells assessed as growth inhibition by MTT assay; type: cell-based; conditions: PANC-1 cells
Assay readout: GI50 (µg/mL)

> print(dat)
                                smiles.code  prefix.operator  numeric.result
1  COc1cc(-c2nc(SCCCn3cnc4sc5c(c4c3=O)CCCC5)n(Cc3c(F)c(F)c(F)c(F)c3F)c(=O)c2C#N)cc(OC)c1OC                >             100
2  CCCCCCCCn1c(SCCCn2cnc3sc4c(c3c2=O)CCCC4)nc(-c2cc(OC)c(OC)c(OC)c2)c(C#N)c1=O                >             100
3  CCCCCc1cc2c(=O)n(CCCSc3nc(-c4cc(OC)c(OC)c(OC)c4)c(C#N)c(=O)[nH]3)cnc2s1                =            72.8
4  CCCCCCCc1cc2c(=O)n(CCSc3nc(-c4cc(OC)c(OC)c(OC)c4)c(C#N)c(=O)[nH]3)cnc2s1                =            72.6
5  CCCc1cc2c(=O)n(CCCSc3nc(-c4cc(OC)c(OC)c(OC)c4)c(C#N)c(=O)[nH]3)cnc2s1                >             100
6  COc1cc(-c2nc(SCCCn3cnc4sc5c(c4c3=O)CCCC5)n(C)c(=O)c2C#N)cc(OC)c1OC                =            24.8

Numbers sourced from ChEMBL document CHEMBL3992538.
